- System: Cryptosporidium hominis
- protocol-text: Antiparasitic activity against Cryptosporidium hominis Iowa intracellular forms infected in human HCT8 cells assessed as reduction in parasite infection dosed 2 hrs after parasite infection
- Format: functional, organism-based
- assay-conditions: HCT-8, 2 h
value-kind: pEC50
Give bare numbers, as −log10 of the molar value.

Problem: Supply reported pEC50 belonging to this compound: "Nc1nc2[nH]cc(Cc3ccc(C(=O)N[C@@H](CCC(=O)O)C(=O)O)cc3)c2c(=O)[nH]1"
Solution: 6.00
